The values you see were collected from ChEMBL document CHEMBL2046276.

# Test system: Malassezia pachydermatis
# protocol description: microbe, parasite or virus in culture
# details: CBS 6536, 168 h
property measured: MIC

MIC lookup needed for Nc1ccc(S(N)(=O)=O)cc1 [SULFANILAMIDE] , thanks.
10 µg/mL

Next up: NS(=O)(=O)c1cc(Cl)c(Cl)c(S(N)(=O)=O)c1 [DICHLORPHENAMIDE]
> 640 µg/mL

Next up: "Nc1cc(Cl)c(S(N)(=O)=O)cc1S(N)(=O)=O"
640 µg/mL

Next up: NCc1ccc(S(N)(=O)=O)cc1 [MAFENIDE]
160 µg/mL

* * *

Consider the following compounds; for each one, report its MIC.
# System: Malassezia furfur
# protocol description: microbe, parasite or virus in culture
# details: CBS 9569, 168 h
The answer is to be given in µg/mL; state only the numeric part.

MIC lookup needed for "NS(=O)(=O)c1ccc(Br)cc1" , thanks.
320

Next up: Cc1ccc(S(N)(=O)=O)cc1 [P-TOLUENESULFONAMIDE]
640

Next up: Nc1ccc(S(N)(=O)=O)cc1 [SULFANILAMIDE]
80

Next up: "NCCc1ccc(S(N)(=O)=O)cc1"
640

Next up: NCc1ccc(S(N)(=O)=O)cc1 [MAFENIDE]
320

Next up: NS(=O)(=O)c1ccccc1 [BENZENESULFONAMIDE]
160

Next up: "Nc1cc(Cl)c(S(N)(=O)=O)cc1S(N)(=O)=O"
640

Next up: "Nc1ccccc1S(N)(=O)=O"
640

* * *

# Test system: Malassezia pachydermatis
# protocol description: microbe, parasite or virus in culture
# details: CBS 6536, 168 h
Consider the following compounds; for each one, report its MIC.
The answer is to be given in µg/mL; state only the numeric part.

MIC lookup needed for NS(=O)(=O)c1ccccc1 [BENZENESULFONAMIDE] , thanks.
160

Next up: "NS(=O)(=O)c1ccc(Br)cc1"
320

Next up: "NCCc1ccc(S(N)(=O)=O)cc1"
640

Next up: NS(=O)(=O)c1ccc(C(=O)O)cc1 [CARZENIDE]
640

* * *

# subject of test: Carbonic anhydrase (Candida albicans (strain SC5314 / ATCC MYA-2876) (Yeast), UniProt Q5AJ71)
# Sequence (Q5AJ71 whole entry): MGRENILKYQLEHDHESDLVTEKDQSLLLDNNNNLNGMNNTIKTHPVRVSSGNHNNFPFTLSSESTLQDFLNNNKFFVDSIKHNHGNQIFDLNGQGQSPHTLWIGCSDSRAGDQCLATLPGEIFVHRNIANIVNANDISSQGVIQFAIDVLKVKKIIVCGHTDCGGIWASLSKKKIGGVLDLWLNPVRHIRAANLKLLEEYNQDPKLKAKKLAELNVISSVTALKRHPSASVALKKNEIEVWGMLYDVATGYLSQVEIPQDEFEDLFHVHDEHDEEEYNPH
Consider the following molecules; for each one, report its Ki.
The answer is to be given in µM; state only the numeric part.

Ki lookup needed for "NS(=O)(=O)Oc1ccc(Br)cc1" , thanks.
0.715

Next up: "NS(=O)(=O)c1ccc(Br)cc1"
0.894

Next up: NS(=O)(=O)c1ccccc1 [BENZENESULFONAMIDE]
2.36

Next up: "NS(=O)(=O)Nc1ccc(Br)cc1"
0.763

Next up: NS(=O)(=O)Nc1ccccc1 [PHENYLSULFAMIDE]
1.91

Next up: NS(=O)(=O)Oc1ccccc1 [PHENYLSULFAMATE]
1.97
